Each record here notes measured IC50.
- targetEntity: T1, cystic fibrosis transmembrane conductance regulator (CFTR) inhibitory factor (Cif) (Pseudomonas aeruginosa)
- T1 chain: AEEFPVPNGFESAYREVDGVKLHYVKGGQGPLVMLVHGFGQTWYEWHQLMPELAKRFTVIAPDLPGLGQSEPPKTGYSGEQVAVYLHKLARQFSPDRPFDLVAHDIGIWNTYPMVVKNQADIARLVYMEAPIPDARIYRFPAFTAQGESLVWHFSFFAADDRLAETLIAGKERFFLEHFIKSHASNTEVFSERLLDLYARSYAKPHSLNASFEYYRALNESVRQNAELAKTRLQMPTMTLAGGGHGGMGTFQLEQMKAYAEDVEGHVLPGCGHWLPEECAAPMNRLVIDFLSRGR
- measurementDescription: sandwich ELISA
Could you give me the number in µg/mL? Just the number is fine.

Examples from the recorded data:
binder="VHH CLONE 302 (VHH) VHH: QVKLQESGGGLVQPGGSLRLSCVASGNIGDIYTMGWYRQAPGKQRELVATVGDGGLTNFVDSVKGRFTISRDKSKGTVSLEMNSLKPEDTAVYYCNADVRIGPTGLRVYWGQGTQVTVSS" quantityname=IC50 resultvalue=0.0172
binder="VHH CLONE 320 (VHH) VHH: DVQLQASGGGLVQPGGSLRLSCATSTSVFSITTLGWYRQAPGKQRELVASMKRGGDTNYADSVKGRFTISRDNARNTVFLQMNNLTTEDTAVYYCNAAILAYTGAVTNYWGQGTQVTVSS" quantityname=IC50 resultvalue=0.0061
binder="VHH CLONE 213 (VHH) VHH: EVQLVESVGGLVQPGGSLRLSCVASGNIGDIYTMGWYRQAPGKQRELVATVGDGGLTNFVDSVKGRFTISRDKSKGTVSLEMNSLKPEDTAVYYCNADVRIGPTGLRVYWGQGTQVTVSS" quantityname=IC50 resultvalue=0.011

Switching to the query record.
Ask | Which IC50 reading was recorded for the binder VHH CLONE 220 (VHH) VHH: EVQLVESGGGLVQPGGSLRLSCVASGNIGNIYTMGWYRQAPGKQRELVAAVGAGELTNYVDSVKGRFTISRDKSKGTVSLEMNSLKPEDTAVYYCNADVSIGPTGLRVYWGQGTQVTVSS ?
Reply | 0.0211
